I'd appreciate it if you could supply melting point values for the items below.

Molecule	melting point
Cc1ccccc1C(=O)N1CCc2nnc(Cl)cc2C1	123 to 126 °C

Respectfully, I request melting point for each entry included below.
1. CN1CCN(S(=O)(=O)CCCO)CC1
2. CCC(=O)C(O)=NNc1cc([N+](=O)[O-])ccc1Br
3. CC(C)(C)OC(=O)N1CCOc2ccc(O)cc2S1(=O)=O

1. 90 to 93 °C
2. 263 to 265 °C
3. 143 °C

----------
What melting point was measured for each of the following?

Molecule	melting point
COc1ccc(C(=O)CC(c2cccs2)C(C)(C)[N+](=O)[O-])cc1 (stereo unspecified)	90 °C
O=C1NC(O)C2=C1CN=C(c1ccccc1Cl)c1cc(Cl)ccc12 (stereo unspecified)	247 to 249 °C
COc1ccc(-c2c[nH]c(S)n2)cc1	204 °C
CCOC(=O)C1[C@@H]2[C@@H](O)[C@@H]3O[C@H](c4cccc(OC)c4)OC[C@H]3O[C@H]12 (stereo partly specified)	107 °C
COC(=O)CN(C)c1cccc(Br)n1	47 to 48 °C
CN(c1ccc(Cl)c2cc(-c3ncc(CO)s3)[nH]c12)S(=O)(=O)c1cccs1	225 to 226 °C
Cc1nc(SCC(N)=O)nc(C)c1Br	175 to 177 °C
COC(=O)c1ccc(-c2cccc([N+](=O)[O-])c2)cc1	136 to 141 °C

// each listed molecule needs a value for melting point
1. CCCNC1=NS(=O)(=O)c2c(sc(C)c2C#N)N1C(=O)OCC
2. O=C1c2ccccc2C(=O)N1CCCCSc1ccncc1

1. 175 to 179 °C
2. 106 to 108 °C

Give the measured melting point of O=C1CNN=C(c2ccccn2)N1 .
138 to 139 °C

----------
Endpoint: melting point

Example molecules with recorded melting point:
Molecule	Reading
CC(C)(C)C(NC(=O)c1ccc(Cl)cc1)NC(=NC#N)Nc1cccnc1 (stereo not given)	194 to 195 °C
CN(C)CC(C(O)c1ccc(N)cc1)N1CCC(Cc2ccccc2)CC1 (stereo not given)	121 to 125 °C
COc1cc(C(=O)NS(=O)(=O)c2ccccc2Cl)ccc1Cc1cn(C)c2ccc(CC3CCN(C)C3=O)cc12 (stereo not given)	128 to 135 °C
CN1c2ccncc2NC(CCc2ccccc2)c2cccn21 (stereo not given)	92 to 94 °C
NC(=O)c1nnn(Cc2ccccc2F)c1N	189 to 190 °C

Could I get melting point for every one of these entries?
1. CCN(CC)CCn1c(=O)c2cnc3c(cnn3CC)c2n2nc(C)cc12
2. CCOC(=O)c1cn2c(n1)C=NC=C1C=CCC=C12
3. O=c1ccccn1CCCn1ccccc1=O
4. CC(C)CCCC(C)NC(=O)Oc1ccc(Oc2ccccc2)cc1F (stereo not given)

1: 90 to 92 °C; 2: 134 to 135 °C; 3: 132 °C; 4: 37 to 41 °C

Query: melting point; subject: O=C(Nc1ccc(Br)cc1CO)C(F)(F)F
97 to 103 °C

----------
Endpoint: melting point

Molecule	Endpoint	Reading
COc1cccc2c(=O)n3nc(C(=O)n4ccnc4)cc3[nH]c12	melting point	295 to 300 °C
Nc1c(F)c(N2C[C@H](CF)[C@H](N)C2)c(F)c2c1c(=O)c(C(=O)O)cn2C1CC1 (relative stereo)	melting point	248 to 249 °C
CC(=O)ON1C(C)(C)CC(OC(=O)c2ccccc2)CC1(C)C	melting point	110 to 112 °C

Working through the 6 molecules below one at a time, give melting point for each.
1. O=C1c2ccccc2CN1C1CCN(c2ccc(C(OCc3ccccn3)c3ccccc3)cc2)CC1 (stereo not given)
2. CC(=O)Nc1ccc2c(c1)CCCCC2=O
3. COc1cc(OCc2ccccn2)ccc1/C=C/c1cc(/C=C/c2cc3ccccc3s2)n[nH]1
4. COC(=O)c1ccc(=O)n(-c2ccccc2)c1
5. CC(C)Cc1ccccc1Sc1c(O)cc(-c2ccccc2)oc1=O
6. Cc1cnc(CCCCNc2ncc(Cc3ccc(C)nc3)c(=O)[nH]2)c(N)c1

1: 149 to 151 °C; 2: 105 °C; 3: 231 to 232 °C; 4: 100 to 105 °C; 5: 195 °C; 6: 86 to 89 °C

Please report the recorded melting point for COc1c(C)cc2[nH]c(S(=O)Cc3nccc(C)c3C)nc2c1C (stereo not given) .
161 °C

----------
Endpoint: melting point

Molecule	Reading
O=C(O)Cc1ccc2c(c1)[nH]c1ccccc12	150 to 152 °C

Give melting point for each of the items listed below.
1. Cc1ccnc(-c2ccc([N+](=O)[O-])cc2)c1
2. CCN(CC)c1ccc(-c2cc(-c3ccc(C(=O)O)cc3)ccc2OCC(C)O)cc1C(C)(C)C (stereo not given)
3. CN(C)c1cc(C(F)(F)F)cc(Cl)c1-n1nc(C#N)c(S(=O)(=O)C(F)(F)F)c1N
4. CCc1cccc(C(C)C)c1N1C(=O)CN(CC)C1=S
5. O=[N+]([O-])c1cc(Cl)ccc1NCCO
6. Oc1cc2ccccc2c(Br)c1O

["145 to 147 °C", "193 °C", "197 °C", "77 to 79 °C", "98 to 100 °C", "98 to 102 °C"]

List the reported melting point of each molecule below.
1. CC(C)(O)c1ccc2c(c1)SC(c1ccccc1)C(c1ccc3c(c1)NC(=O)CO3)=C2 (stereo not given)
2. CC(C)COc1ccc(-c2ccc3nnn(Cc4ccc5ncccc5c4)c3n2)cc1F
3. CCOC(=O)c1sc2nc(CBr)c(CC)c(=O)n2c1C

241 to 245 °C
115 to 157 °C
146 to 148 °C

----------
Endpoint: melting point

The cases that follow already have their melting point on record.
Compound	melting point
CC(=O)OC1COC(Oc2ccc(C(=S)c3ccc(C)cc3)cc2)C(OC(C)=O)C1OC(C)=O (centres undefined)	132 °C
CC[C@H](C)[C@H](OCc1ccccc1)[C@@H]1[C@H]([N+](=O)[O-])[C@H](c2ccccc2)N[C@]1(C)C(=O)NCC(=O)O	89 to 90 °C
O=C(O)CSc1nc(-c2ccccc2)c(-c2ccccc2)o1	66 to 68 °C
Cc1nc2c(N)nc3c(c2n1CCCCNC(=O)N1CCOCC1)CCCC3	134 to 135 °C
CC(C)Nc1nc2c(F)c(F)c(F)cc2[nH]1	182 to 184 °C
CCOC(=O)ONC(=N)c1cc(C(C)(C)C)c(OCOCCOC)c(C(C)(C)C)c1	115 to 117 °C
Cn1c(SC(C(=O)O)c2ccccc2)nc2ccccc21 (centres undefined)	157 to 159 °C
Cc1c(NC(=O)NCC(C)O)c(C)c2c(c1-c1ccccc1)OCC2c1ccc(C(C)C)cc1 (centres undefined)	171 to 182 °C

Now for a further compound.
If you can, please state the reported melting point value of COc1ccc(-c2c(N)cnc3ccc(Cl)cc23)cc1OC .
187 to 190 °C

----------
I'd be grateful if you could share measured melting point for these entries.

Worked examples follow.
Compound	Reading
Cc1cnc(N2CCN(c3ccc([N+](=O)[O-])cc3)CC2)n1C	204 to 205 °C
O=C(O)CCc1cc2ccccc2n1S(=O)(=O)c1ccccc1	180 to 185 °C
CN(C)c1ccc(C2(c3ccc(N(C)C)cc3N(C)C)OC(=O)c3c(Cl)c(Cl)c(Cl)c(Cl)c32)cc1 (centres undefined)	227 to 229 °C
O=C(O)CCC(=C1SCCCS1)c1ccc(Oc2ccccc2)cc1	154 to 155 °C
COc1ccc(C[C@@H]2COc3ccc(OCc4nc5cc(F)ccc5s4)cc3[C@@H]2O)cc1C(=O)O (relative stereo)	149 to 151 °C
COc1ccc(-c2nc(CSCCO)nc3cc(OC)c(OC)cc23)cc1OC	154 to 155 °C

Hi! Can you tell me melting point for each of these compounds?
1. O=C(Nc1ccc(F)cc1F)N(Cc1ccccc1)CC1(c2ccccc2)CCCC1
2. CCOC(=O)c1c(Cl)nc2ccsc2c1Cl

["119 to 122 °C", "73 °C"]

melting point lookup needed for CC1CC(C)CN(CN2C(=O)CN(CC(C)N3CC(=O)N(CN4CC(C)CC(C)C4)C(=O)C3)CC2=O)C1 (centres undefined) , thanks.
142 to 144 °C

----------
Please respond with reported melting point for every item in the list.

The cases that follow already have their melting point on record.
Compound	melting point
CCN(CC)CCNC(=O)c1cccc2c(=O)c3ccc(I)cc3[nH]c12	208 to 210 °C
CCCN(CCC)C(=O)C(CCC(=O)NC)NC(=O)OCc1ccccc1 (stereo unspecified)	75 to 76 °C
Cc1cc(C)c(C#N)c(-c2ccc(F)c(C)c2)c1	98 to 100 °C
CCn1cc(C(=O)OC)c(=O)cc1-c1ccc(N(C)C)c(C)c1	132 to 134 °C
O=C(Nc1ccc(C(=O)O)cc1)OCc1cn(-c2cc3cc(C(=O)O)c(=O)[nH]c3cc2C(F)(F)F)cn1	218 to 220 °C

For each entry beneath this line, provide reported melting point.
1. COC(=O)c1ccc(Cl)cc1NC(=O)CSc1ccccc1C(=O)O
2. COc1ccc2ccc(N3C(=O)c4ccccc4C3OCC(=O)NCCN(C)C)nc2n1 (stereo unspecified)

1. 207 to 209 °C
2. 146 °C

Fill in melting point for each of the 3 compounds listed.
1. CC(=NO)c1ccc2c(c1)CCc1c(O)cc(O)cc1S2
2. CC(C)(C)OC(=O)Nc1cc(-c2nnc(SCc3cccc(F)c3)o2)ccn1
3. COc1ccc2nc(COc3ccc(CC(C(N)=O)S(C)(=O)=O)cc3)n(C)c2c1 (stereo unspecified)

1: 215 to 218 °C; 2: 237 to 238 °C; 3: 233 to 236 °C

Kindly give each listed record's melting point.
1. Cc1cccc(N2CCOC2=O)c1COc1cccn2c(C=O)c(C)nc12
2. COc1ccc(Oc2ccc(C(C)=C3SCCCS3)cc2)cc1OC
3. C=C(CCC)C(=O)c1cc2oc(C(=O)O)cc2c(C)c1C
4. CC1(C)CCC(C)(C)c2cc(OCc3ccc(C=O)cc3)ccc21

1: 242 to 244 °C; 2: 73.5 to 75.5 °C; 3: 172 °C; 4: 102 to 104 °C
